Ref: ChEMBL document CHEMBL5390277

Experiment: Stability in human plasma assessed as half life measured upto 120 mins by mass spectrometry method
Assay type: ADME, cell-free
Peptide text beside a SMILES is read from it.
MEASUREMENT_KIND: half-life (min)
Give bare numbers, in min.

Exercise: # query: half-life of entry CC[C@H](C)[C@H](N)C(=O)N[C@H](C(=O)N[C@@H](CCCNC(=N)N)C(=O)N[C@@H](Cc1c[nH]c2ccccc12)C(=O)N[C@@H](CO)C(=O)N[C@@H](CCCCN)C(=O)N[C@@H](CCCCN)C(=O)N[C@H](C(=O)N1CCC[C@H]1C(=O)N[C@@H](CS)C(=O)N[C@H](C(=O)N[C@@H](CO)C(=O)O)C(C)C)C(C)C)C(C)C (H-IVRWSKKVPCVS-OH)
Key: 5.2
